assay: Cytotoxicity against monkey Vero cells assessed as cell viability at 50 ug/ml by WST-1 assay relative to control; assay type: cell-based; conditions: chlorocebus sabaeus, read-out: Activity
// viability at 50 ug/ml lookup, one value per entry
Phrase the answer as number then unit, nothing more needed.

These recorded examples may help you get a feel for the data.
>  <Compound>
O=C(/C=C/c1ccc(F)cc1)O/C(=N/C1CCCCC1)NC1CCCCC1

>  <viability at 50 ug/ml>
82.5%

$$$$
>  <Compound>
COC(=O)[C@@H]1COC(/C=C/c2ccccc2)=N1

>  <viability at 50 ug/ml>
68.6%

$$$$
>  <Compound>
COC(=O)[C@H](CO)NC(=O)/C=C/c1ccc(C)cc1

>  <viability at 50 ug/ml>
100%

$$$$
>  <Compound>
O=C(/C=C/c1ccccc1)O/C(=N/C1CCCCC1)NC1CCCCC1

>  <viability at 50 ug/ml>
83.9%

$$$$
>  <Compound>
COC(=O)[C@H](COC(=O)/C=C/c1ccc(F)cc1)NC(=O)/C=C/c1ccc(F)cc1

>  <viability at 50 ug/ml>
21.1%

$$$$
>  <Compound>
COC(=O)[C@H](COC(=O)/C=C/c1ccc(OC)cc1)NC(=O)/C=C/c1ccc(OC)cc1

>  <viability at 50 ug/ml>
39.1%

$$$$

# ---- query compound ----
Sample COC(=O)[C@H](CO)NC(=O)/C=C/c1ccc(OC)cc1 — what was its viability at 50 ug/ml?
100%
